Recorded values, source patent US10183014B2.

experiment: PK with topical ocular Compound-I in sodium phosphate-based Gel Drop; type: in vivo, Dutch-Belted rabbits; details: Dutch-Belted, rabbit, aqueous humor (AH), Gel Drop 6 mg/ml, 3x per day, 4 days, 1 hour after last dose, read-out: Mean [AH]
quantity.name: concentration at 1 h (nM)

1. Cl.NC(=O)c1c(OCc2c(F)cc(Br)cc2F)nsc1NC(=O)NCCCCN1CCCC1 [Compound-I, hydrochloride] :: 50.9

----------
test: Ocular pharmacokinetics of formulations, Example 20-5; format: in vivo, Dutch Belted rabbits; details: Dutch Belted, rabbit, central retina, topical, 1 mg/mL (30 μL per eye, bilateral); Group 7: 1 mg/mL suspension, 50 μm particles, TRIS 0.60%, glycerol 2%, HEC 0.2%, HPMC 0.08%, Vitamin K3 1 μM, pH 6, QD for 4 days; 1 hr post dose on Day 5; read-out: Central Retina concentration
quantity.name: concentration at 1 h (nM)

1. Cl.NC(=O)c1c(OCc2c(F)cc(Br)cc2F)nsc1NC(=O)NCCCCN1CCCC1 [Compound-I, hydrochloride] :: 25.6

----------
Assay: Ocular pharmacokinetics of formulations, Example 20-5
Type: in vivo, Dutch Belted rabbits
Details: Dutch Belted, rabbit, plasma, topical, 30 μL per eye; Group 12: 10 mg/mL suspension, 50 μm particles, TRIS 0.60%, glycerol 2%, HEC 0.2%, HPMC 0.08%, Vitamin K3 1 μM, pH 6, QD for 4 days; 1 hr post dose on Day 5; read-out: Plasma concentration
Protocol: The study design (Table 19-1) consisted of forty-seven (47) Dutch Belted rabbits, each receiving a 30 μL bilateral topical ocular dose. Various suspension formulations of the present application were evaluated and compared against a cyclodextrin-based eye drops solution (Control Group 1, Table 19-1). […] Ocular sampling occurred one hour following the first daily dose on Day 5 for all groups. […] For Group 5 only, samples were analyzed for Vitamin K3. […]
quantity.name: concentration at 1 h

1) Cl.NC(=O)c1c(OCc2c(F)cc(Br)cc2F)nsc1NC(=O)NCCCCN1CCCC1 [Compound-I, hydrochloride] :: 8.61 nM

----------
test: 1- to 5-day PK with topical ocular Compound-I formulations (Example 5); format: in vivo, Dutch Belted rabbits; conditions: Dutch Belted, rabbit, peripheral choroid, topical, 30 μL (bilateral), Groups 1, 5: one dose day 1; 24 hr post-dose; read-out: Average Concentration Peripheral Choroid
quantity.name: concentration at 24 h (nM)

1) Cl.NC(=O)c1c(OCc2c(F)cc(Br)cc2F)nsc1NC(=O)NCCCCN1CCCC1 [Compound-I, hydrochloride] :: 88

----------
test: Ocular pharmacokinetics of formulations, Example 20-4; type: in vivo, Dutch Belted rabbits; settings: Dutch Belted, rabbit, central retina, topical, 1 mg/mL (30 μL per eye, bilateral), pH 6, Group 2: 1 mg/mL Salt, eye drops solution (control), pH 6, QD; Day 5, 1 hr post dose; read-out: Central Retina concentration
quantity.name: concentration at 1 h (µM)

1) Cl.NC(=O)c1c(OCc2c(F)cc(Br)cc2F)nsc1NC(=O)NCCCCN1CCCC1 [Compound-I, hydrochloride] :: 0.0347

----------
test: Ocular pharmacokinetics of formulations, Example 20-4; format: in vivo, Dutch Belted rabbits; conditions: Dutch Belted, rabbit, central choroid, topical, 4 mg/mL (30 μL per eye, bilateral); Group 4: 4 mg/mL FB suspension, PSD 30 μm/XL, HPMC 0.08%, glycerol 2.5%, HEC 0.2%, VitK3 1 μM, pH ≈7.5, QD; Day 5, 1 hr post dose; read-out: Central Choroid concentration
quantity.name: concentration at 1 h (µM)

1. NC(=O)c1c(OCc2c(F)cc(Br)cc2F)nsc1NC(=O)NCCCCN1CCCC1 :: 0.203
